Entry source: paper PMC7693160

MEASUREMENT_DESCRIPTION: Equilibrium solubility, Uniprep method, 24 h at 37 °C
Format: physicochemical
MEASUREMENT_CONDITIONS: 37 °C, thermodynamic from solid; FeSSIF V1 Level I (pH = 5.0), pHfinal 5.1; read-out: Solubility, mean (SD)
MEASURE: solubility at 24 h (µg/mL)
Hi! Could you send only the number? It should be in µg/mL, unit omitted.

Quick check: solubility at 24 h of CC(C(=O)O)c1ccc(-c2ccccc2)c(F)c1 (stereo not shown) ?
225

###

MEASUREMENT_DESCRIPTION: Equilibrium solubility, Uniprep method, 24 h at 37 °C
Type: physicochemical
MEASUREMENT_CONDITIONS: 37 °C, aqueous buffer, thermodynamic from solid; Phosphate buffer (pH = 6.8), pHfinal 6.3; read-out: Solubility, mean (SD)
MEASURE: solubility at 24 h (µg/mL)
Field: numeric (µg/mL). Do not append units.

Any idea what solubility at 24 h was measured for CC(C(=O)O)c1ccc(-c2ccccc2)c(F)c1 (stereo not shown) ?
3130

###

MEASUREMENT_DESCRIPTION: Equilibrium solubility, Uniprep method, 24 h at 37 °C
Assay type: physicochemical
MEASUREMENT_CONDITIONS: 37 °C, aqueous buffer, thermodynamic from solid; Acetate buffer (pH = 4.5), pHfinal 4.7; read-out: Solubility, mean (SD)
MEASURE: solubility at 24 h (µg/mL)
Respond with the bare value in µg/mL.

Return reported solubility at 24 h; argument: CC(C(=O)O)c1ccc(-c2ccccc2)c(F)c1 (stereo not shown)
101

###

MEASUREMENT_DESCRIPTION: Equilibrium solubility, Uniprep method, 24 h at 37 °C
Assay type: physicochemical
MEASUREMENT_CONDITIONS: 37 °C, aqueous buffer, thermodynamic from solid; Phosphate buffer (pH = 6.5), pHfinal 6.1; read-out: Solubility, mean (SD)
MEASURE: solubility at 24 h (µg/mL)
Form entry: value (µg/mL) — number only.

I'd like to know its solubility at 24 h. The compound in question is CC(C(=O)O)c1ccc(-c2ccccc2)c(F)c1 (stereo not shown) [flurbiprofen]
2020

###

MEASUREMENT_DESCRIPTION: Equilibrium solubility, Uniprep method, 24 h at 37 °C
Assay type: physicochemical
MEASUREMENT_CONDITIONS: 37 °C, thermodynamic from solid; FaSSGF Level I (pH = 1.6), pHfinal 1.6; read-out: Solubility, mean (SD)
MEASURE: solubility at 24 h (mg/mL)
Answer in mg/mL, number only, no unit symbol.

// returns reported solubility at 24 h for input CC(C(=O)O)c1ccc(-c2ccccc2)c(F)c1 (stereo not shown)
0.0181
